System: Phytophthora infestans
test: whole plant or invertebrate
Format: in vivo
setup.conditions: 200 ppm test suspension
metric.name: Test J disease control rating (%)
Please state the figure in %; there is no need to write the unit.

Test J disease control rating lookup needed for CC(C)Nc1nccc(-c2c(-c3cccc(F)c3)nn3c2CCC3)n1 [compound 102] , thanks.
96

Returns the measured Test J disease control rating for the input compound. Input: C=CCNc1nccc(-c2c(-c3ccc(F)cc3)nn3c2CCC3)n1 [compound 95]
99

Which Test J disease control rating value is on record for Fc1ccc(-c2nn3c(c2-c2ccnc(Nc4ccc(OC(F)(F)F)cc4)n2)CCCC3)cc1 [compound 60] ?
9

State the recorded Test J disease control rating for this entry: Cc1cc(-c2nn3c(c2-c2ccnc(NC(C)CO)n2)COCC3)ccc1F (stereo not drawn) [compound 123]
91

Look at this compound and give its reported Test J disease control rating. COCC(C)Nc1nccc(-c2c(-c3ccc(C)cc3)nn3c2CCC3)n1 (stereo not drawn) [compound 89]
0

Which value of Test J disease control rating has been reported for COc1nccc(-c2c(-c3ccc(F)cc3)nn3c2CCCC3)n1 [Compound 105] in the records?
73

Item under review: C[C@H](CO)Nc1nccc(-c2c(-c3ccc(F)cc3)nn3c2CCOC3)n1 [compound 113] . Reported Test J disease control rating?
96

Fill in the blank: the reported Test J disease control rating of OC1(CNc2nccc(-c3c(-c4ccc(F)cc4)nn4c3CCCC4)n2)CC1 [compound 44] is ____.
65

Given the entry Fc1ccc(-c2nn3c(c2-c2ccnc(N4CCC4)n2)CCCC3)cc1 [compound 82] , report its measured Test J disease control rating.
99

# Test J disease control rating lookup, item CC(COC(=O)CCC(=O)O)Nc1nccc(-c2c(-c3ccc(F)cc3)nn3c2CCCC3)n1 (stereo not drawn) [compound 66]
97

Consider the compound shown here: CC(C)CNc1nccc(-c2c(-c3ccccc3F)nn3c2CCC3)n1 [compound 98] What is its recorded Test J disease control rating?
88

// Test J disease control rating lookup, key: COCC(C)Nc1nccc(-c2c(-c3ccccc3F)nn3c2CCC3)n1 (stereo not drawn) [compound 96]
98

What measured Test J disease control rating goes with C[C@@H](CO)Nc1nccc(-c2c(-c3ccc(F)cc3)nn3c2CCCC3)n1 [compound 48] ?
99

Which value of Test J disease control rating has been reported for CC(C)Nc1nccc(-c2c(-c3ccc(Cl)cc3)nn3c2CCCC3)n1 [compound 21] in the records?
52

Given the compound CC(C)CNc1nccc(-c2c(-c3ccc(F)cc3)nn3c2CCCC3)n1 [compound 29] , what is its reported Test J disease control rating?
47

Fill in the blank: the reported Test J disease control rating of C[Si](C)(C)CNc1nccc(-c2c(-c3ccc(F)cc3)nn3c2CCCC3)n1 [compound 35] is ____.
67

State the recorded Test J disease control rating for this entry: COCC(C)Nc1nccc(-c2c(-c3ccc(OC)cc3)nn3c2CCC3)n1 (stereo not drawn) [compound 86]
94

Which value of Test J disease control rating has been reported for CC(C)Nc1nccc(-c2c(-c3ccc(F)cc3F)nn3c2COCC3)n1 [compound 125] in the records?
100

Bench note: what Test J disease control rating did Fc1ccc(-c2nn3c(c2-c2ccnc(NCC4CCCO4)n2)CCCC3)cc1 (stereo not drawn) [compound 34] show?
91

Which Test J disease control rating is listed for OCCCNc1nccc(-c2c(-c3ccc(F)cc3)nn3c2CCCC3)n1 [compound 37] ?
95

Which value of Test J disease control rating has been reported for CC(C)Nc1nccc(-c2c(-c3ccc(F)cc3)nn3c2CCCC3)n1.Cl [compound 69] in the records?
97

Param item = CC(CO)Nc1nccc(-c2c(-c3ccc(F)cc3)nn3c2CSCC3)n1 (stereo not drawn) [compound 111] ; retrieve measured Test J disease control rating.
80

Bench note: what Test J disease control rating did OCC(CO)Nc1nccc(-c2c(-c3ccc(F)cc3)nn3c2CCCC3)n1 [compound 63] show?
9

I have this compound here, Fc1ccc(Nc2nccc(-c3c(-c4ccc(F)cc4)nn4c3CCCC4)n2)cc1 [compound 40] , and I need its recorded Test J disease control rating.
0

Recorded Test J disease control rating of CC(CO)Nc1nccc(-c2c(-c3ccsc3)nn3c2COCC3)n1 (stereo not drawn) [compound 124] , please.
66

Please report the recorded Test J disease control rating for Fc1cc(F)cc(-c2nn3c(c2-c2ccnc(NC4CC4)n2)CCC3)c1 [compound 104] .
88

Given the compound C#CCNc1nccc(-c2c(-c3ccc(F)cc3)nn3c2CCCC3)n1 [compound 17] , what is its reported Test J disease control rating?
100

Recorded Test J disease control rating for CN(C)c1nccc(-c2c(-c3ccc(F)cc3)nn3c2CCCC3)n1 [compound 14] , please?
60

Can you share its Test J disease control rating? I mean this compound: Fc1ccc(-c2nn3c(c2-c2ccnc(NC4CC4)n2)CCCC3)c(F)c1 [compound 28]
95

Which measured Test J disease control rating value corresponds to CC(CO)Nc1nccc(-c2c(-c3ccccc3)nn3c2COCC3)n1 (stereo not drawn) [compound 122] ?
99

Entry CN(C)Nc1nccc(-c2c(-c3ccc(F)cc3)nn3c2CCCC3)n1 [compound 23] has what Test J disease control rating?
71

Test J disease control rating lookup needed for CCC(C)c1ccc(Nc2nccc(-c3c(-c4ccc(F)cc4)nn4c3CCCC4)n2)cc1 (stereo not drawn) [compound 9] , thanks.
0

Data request, read-out Test J disease control rating, for CCC(C)Nc1nccc(-c2c(-c3ccc(F)cc3)nn3c2CCCC3)n1 (stereo not drawn) [compound 20]
99

Value source: patent US8288375B2
